This collection of values is drawn from BindingDB's records for doi:10.1021/jm900681h.

- tested.system: Cellular tumor antigen p53 (Homo sapiens, UniProt P04637)
- Sequence (P04637 whole entry): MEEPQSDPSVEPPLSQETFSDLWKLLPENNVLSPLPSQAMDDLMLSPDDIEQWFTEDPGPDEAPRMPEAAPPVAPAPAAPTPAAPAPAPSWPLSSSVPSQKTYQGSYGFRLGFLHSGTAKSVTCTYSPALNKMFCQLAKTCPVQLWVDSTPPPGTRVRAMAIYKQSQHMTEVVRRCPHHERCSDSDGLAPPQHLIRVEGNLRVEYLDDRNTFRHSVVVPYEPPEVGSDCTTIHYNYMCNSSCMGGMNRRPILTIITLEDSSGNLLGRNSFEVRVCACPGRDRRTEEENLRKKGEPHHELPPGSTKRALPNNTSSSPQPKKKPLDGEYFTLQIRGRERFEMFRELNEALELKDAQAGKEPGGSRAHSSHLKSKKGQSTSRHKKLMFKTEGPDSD
- test.protocol: Induction of p53-Ser15 phosphorylation in human HCT116 cells after 24 hrs
quantity: IC50 (nM)
Give bare numbers, in nM.

# input Look up IC50: Cc1ccc2c(c1)C1=C(C(c3ccc(Br)cc3)O2)C(c2ccc(Br)cc2)n2ncnc2N1C (stereo unspecified)
# output 1000

====

- test.protocol: Induction of p53 in human HCT116 cells coexpressing pp53TA-luc assessed as inhibition of cell proliferation after 8 hrs by firefly/renilla luciferase reporter assay
pIC50: −log10 of the molar value.
Values of pIC50 greater than or equal to 5 map to MET; values below map to NOT MET.

# count of solved cases: 3
{"compound": "CN1C2=C(C(c3ccc(Br)cc3)Oc3ccc(F)cc32)C(c2ccc(Br)cc2)n2ncnc21 (racemic)", "label": "NOT MET"}
{"compound": "Cc1ccc2c(c1)C1=C(C(c3ccc(Br)cc3)O2)C(c2ccc(Br)cc2)n2ncnc2N1C (stereo unspecified)", "label": "MET"}
{"compound": "CN1C2=C(C(c3ccc(Cl)cc3)Oc3ccccc32)C(c2ccc(Br)cc2)n2ncnc21 (racemic)", "label": "NOT MET"}

Read the next record carefully.
# input For this compound, is measured pIC50 5 or higher? CCOc1cccc2c1C1=C(C(c3ccc(Br)cc3)O2)C(c2ccc(Br)cc2)n2ncnc2N1C (racemic)
# output MET
